Ref: PubChem BioAssay (NCI)

Test system: U251 CNS
protocol notes: NCI tumour cell line growth inhibition, 48 h
readout: TGI

[[record]]
compound = "O=C(O)CC/C(=N\\Nc1nsc2ccccc12)c1ccccc1"
readout = "TGI"
result = "> 100 µM"

[[record]]
compound = "O=C(Nc1ccc(Br)cc1)c1c(-c2ccccc2)c2ccc(O)cc2oc1=O"
readout = "TGI"
result = "> 10 µM"

[[record]]
compound = "Cc1ccc(S(=O)(=O)N(CCOc2ccc(/C(N)=N/Cl)cc2)CCOc2ccc(/C(N)=N\\Cl)cc2)cc1"
readout = "TGI"
result = "16.8 µM"


Please tell me the measured TGI for CCCCC(=O)OCC1OC(n2cnc3c(=S)nc[nH]c32)C(OC(=O)CCCC)C1OC(=O)CCCC (configuration not stated) ; system: U251 CNS.
> 100 µM

Output reported TGI of the compound `COc1ccc(-n2c(=O)c3[nH]cnc3n(-c3ccc(OC)cc3)c2=S)cc1` on U251 CNS.
> 100 µM

Write TGI of O=C1C=CC(=Nc2ccc3c(c2)C(Br)c2ccccc2-3)O1 (configuration not stated) ; system used: U251 CNS
> 100 µM

Look up and report TGI, with U251 CNS as system, for `CNC(=O)OCc1c(COC(=O)NC)c(-c2ccc(Cl)c(Cl)c2)n2c1SCC2`
22.2 µM

State, for U251 CNS, measured TGI of the compound listed here: `COc1ccc2[nH]c(O)c(/C=c3/cc4c(c(-c5cc(OC)c(OC)c(OC)c5)n3)=Nc3ccccc3-4)c2c1`
> 100 µM
